pKi values for the compounds below.
biological target: human σ2/TMEM97 receptor (Homo sapiens, UniProt Q5BJF2); construct: expressed in transfected cells; host or cells: HEK-293; experiment: Binding assay to human σ2/TMEM97 receptor ([3H]-DTG); details: transfected HEK-293 membranes, 10 nM [3H]-DTG, 25° C., 120 minutes; read-out: Binding σ-[…] (binding to σ2-receptor expressed as Ki)
Sequence (Q5BJF2 whole entry): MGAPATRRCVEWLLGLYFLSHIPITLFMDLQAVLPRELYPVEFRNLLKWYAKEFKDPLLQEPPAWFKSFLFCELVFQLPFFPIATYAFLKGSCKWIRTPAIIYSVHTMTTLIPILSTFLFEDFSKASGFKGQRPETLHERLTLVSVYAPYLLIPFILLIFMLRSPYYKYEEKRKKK
pKi: −log10 of the molar value.

{"compound": "COc1ccc(CN(C)C2CCN(C(=O)N3CC(C)(C)c4nc(C)ccc43)CC2)cc1 [Example 58]", "measurement_target": "human σ2/TMEM97 receptor (Homo sapiens, UniProt Q5BJF2)", "pKi": "6.30 to 7.00"}
{"compound": "CC1(C)CN(C(=O)N2CC3(CCN(Cc4ccccc4)CC3)C2)c2cccnc21 [Example 159]", "measurement_target": "human σ2/TMEM97 receptor (Homo sapiens, UniProt Q5BJF2)", "pKi": "6.30 to 7.00"}
{"compound": "CC1(C)CN(C(=O)N2CCC3(CCN(Cc4c(F)cccc4F)CC3)C2)c2cccnc21 [Example 150]", "measurement_target": "human σ2/TMEM97 receptor (Homo sapiens, UniProt Q5BJF2)", "pKi": "6.30 to 7.00"}

====

biological target: human σ1 receptor (Homo sapiens, UniProt Q99720); construct: expressed in transfected cells; host or cells: HEK-293; experiment: Human σ1 receptor radioligand assay ([3H](+)-pentazocine); format: binding; details: transfected HEK-293 membranes, 5 nM [3H](+)-pentazocine, 37° C., 120 minutes; read-out: Binding σ-[…] (binding to σ1-receptor expressed as Ki)
Sequence (Q99720 whole entry): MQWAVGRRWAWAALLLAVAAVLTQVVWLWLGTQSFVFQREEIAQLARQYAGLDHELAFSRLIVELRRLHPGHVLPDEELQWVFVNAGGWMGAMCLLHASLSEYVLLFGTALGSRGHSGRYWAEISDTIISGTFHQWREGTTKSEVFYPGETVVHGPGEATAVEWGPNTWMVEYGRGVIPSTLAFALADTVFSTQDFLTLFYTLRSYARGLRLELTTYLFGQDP
Entries annotated with measured Ki
property: Ki

{"molecule": "Cc1ccc2c(n1)C(C)(C)CN2C(=O)N1CCC2(CCN(Cc3ccccc3)CC2)C1 [Example 80]", "property": "Ki", "observed_value": "100 to 500 nM"}
{"molecule": "Cc1ccc2c(n1)C(C)(C)CN2C(=O)N[C@@H]1CCN(Cc2ccccc2)C1 [Example 18]", "property": "Ki", "observed_value": "100 to 500 nM"}
{"molecule": "Cc1ccc2c(n1)C(C)(C)CN2C(=O)[C@H]1C[C@H](NCc2ccccc2)C1 [Example 134]", "property": "Ki", "observed_value": "100 to 500 nM"}
{"molecule": "CC1(C)CN(C(=O)N2CC3(CCN(Cc4ccccc4)CC3)C2)c2cccnc21 [Example 159]", "property": "Ki", "observed_value": "< 100 nM"}
{"molecule": "CC1(C)CN(C(=O)N2CCC3(CCN(Cc4ccccc4F)CC3)CC2)c2cccnc21 [Example 145]", "property": "Ki", "observed_value": "< 100 nM"}
{"molecule": "CC1(C)CN(C(=O)N2CCC3(CCN(Cc4ncccc4F)CC3)C2)c2cccnc21 [Example 153]", "property": "Ki", "observed_value": "> 1000 nM"}
{"molecule": "Cc1ccc2c(n1)C(C)(C)CN2C(=O)[C@H]1CC[C@H](N(C)Cc2cc(F)cc(F)c2)CC1 [Example 168]", "property": "Ki", "observed_value": "< 100 nM"}
{"molecule": "Cc1ccc2c(n1)C(C)(C)CN2C(=O)NC1CCN(CC2CCOCC2)CC1 [Example 42]", "property": "Ki", "observed_value": "100 to 500 nM"}
{"molecule": "Cc1ccc2c(n1)C(C)(C)CN2C(=O)N1CCC(N(C)CC2CCOCC2)CC1 [Example 65]", "property": "Ki", "observed_value": "100 to 500 nM"}
{"molecule": "Cc1nc2c(cc1F)N(C(=O)NC[C@@H](c1ccccc1)N(C)C)CC2(C)C [Example 16]", "property": "Ki", "observed_value": "< 100 nM"}
{"molecule": "CC1(C)CN(C(=O)N2CCC3(CCN(Cc4ccc(C#N)c(F)c4)CC3)CC2)c2cccnc21 [Example 146]", "property": "Ki", "observed_value": "< 100 nM"}
{"molecule": "Cc1ccc2c(n1)C(C)(C)CN2C(=O)NC1CCN(Cc2ccc(F)c(F)c2)CC1 [Example 44]", "property": "Ki", "observed_value": "< 100 nM"}
{"molecule": "CN(CCc1ccccc1)[C@H]1CCN(C(=O)N2CCc3ncccc32)C1 [Example 62]", "property": "Ki", "observed_value": "> 1000 nM"}
{"molecule": "Cc1ccc2c(n1)C(C)(C)CN2C(=O)[C@H]1CC[C@H](N(C)Cc2ccc(F)c(F)c2)CC1 [Example 170]", "property": "Ki", "observed_value": "< 100 nM"}
{"molecule": "Cc1ccc2c(n1)C(C)(C)CN2C(=O)N1CCC2(CCN(Cc3cccc(S(C)(=O)=O)c3)CC2)C1 [Example 102]", "property": "Ki", "observed_value": "> 1000 nM"}
{"molecule": "Cc1ccc2c(n1)C(C)(C)CN2C(=O)N1CCC(N(C)CCC(C)C)CC1 [Example 67]", "property": "Ki", "observed_value": "< 100 nM"}
{"molecule": "Cc1ccc2c(n1)C(C)(C)CN2C(=O)N1CCC(CN(C)Cc2ccccc2)CC1 [Example 66]", "property": "Ki", "observed_value": "100 to 500 nM"}
{"molecule": "CN(Cc1ccccc1)[C@H]1CC[C@H](C(=O)N2CC(C)(C)c3nc(C(F)(F)F)ccc32)CC1 [Example 186]", "property": "Ki", "observed_value": "< 100 nM"}
{"molecule": "CC1(C)CN(C(=O)N2CCC3(CCN(Cc4ccc(F)cn4)CC3)C2)c2cccnc21 [Example 154]", "property": "Ki", "observed_value": "100 to 500 nM"}
{"molecule": "CC1(C)CN(C(=O)NC2CCN(Cc3ccccc3)CC2)c2cccnc21 [Example 32]", "property": "Ki", "observed_value": "< 100 nM"}
{"molecule": "Cc1ccc2c(n1)C(C)(C)CN2C(=O)N1CCC2(CCN(Cc3ccccc3)C2)C1 (centres unmarked) [Example 37]", "property": "Ki", "observed_value": "100 to 500 nM"}
{"molecule": "Cc1ccc2c(n1)C(C)(C)CN2C(=O)N1CCC2(CCN(Cc3ccccc3)C2)CC1 [Example 38]", "property": "Ki", "observed_value": "100 to 500 nM"}
{"molecule": "Cc1ccc2c(n1)C(C)(C)CN2C(=O)N1CCC2(CCN(CCC3CCOCC3)CC2)C1 [Example 108]", "property": "Ki", "observed_value": "> 1000 nM"}

====

biological target: human σ1 receptor (Homo sapiens); construct: expressed in transfected cells; host or cells: HEK-293; assay: Human σ1 receptor radioligand assay ([3H](+)-pentazocine); type: binding; conditions: transfected HEK-293 membranes, 5 nM [3H](+)-pentazocine, 37° C., 120 minutes; read-out: Binding σ-[…] (binding to σ1-receptor expressed as Ki)
Counter-ions that a name gives are not always drawn.

{"compound": "CC1(C)CN(C(=O)N2CCC3(CCN(Cc4ccc(C#N)cc4F)CC3)C2)c2cccnc21 [Example 157]", "Ki": "0.1 to 0.5 µM"}
{"compound": "CC1(C)CN(C(=O)N2CCC3(CCN(Cc4ccc(F)cc4)CC3)C2)c2cccnc21 [Example 149]", "Ki": "< 0.1 µM"}
{"compound": "Cc1ccc2c(n1)C(C)(C)CN2C(=O)NC1CCN(Cc2cccc(Cl)c2)CC1 [Example 55]", "Ki": "< 0.1 µM"}
{"compound": "Cc1ccc2c(n1)C(C)(C)CN2C(=O)N1CCC2(CCN(C3CCOCC3)CC2)C1 [Example 110]", "Ki": "> 1 µM"}
{"compound": "Cc1ccc2c(n1)C(C)(C)CN2C(=O)NC[C@@H](c1cccc(F)c1)N(C)C [Example 34]", "Ki": "0.1 to 0.5 µM"}
{"compound": "Cc1ccc2c(n1)C(C)(C)CN2C(=O)N1CCC(N(C)Cc2ccc(C#N)cc2)CC1 [Example 117]", "Ki": "0.1 to 0.5 µM"}
{"compound": "Cc1ccc2c(n1)C(C)(C)CN2C(=O)N1CCC(N(C)Cc2ccccc2)CC1 [Example 11]", "Ki": "0.1 to 0.5 µM"}
{"compound": "Cc1ccc2c(n1)C(C)(C)CN2C(=O)N1CCC2(CCN(CC3CCOCC3)CC2)C1 [Example 105]", "Ki": "0.5 to 1 µM"}
{"compound": "Cc1ccc2c(n1)C(C)(C)CN2C(=O)[C@H]1CC[C@H](N(C)Cc2cc(F)ccc2F)CC1 [Example 173]", "Ki": "< 0.1 µM"}
{"compound": "Cc1ccc2c(n1)C(C)(C)CN2C(=O)N1CCCCC(NCCC(C)C)C1 (centres unmarked) [Example 120]", "Ki": "0.5 to 1 µM"}
{"compound": "CCOCCN1CCC(NC(=O)N2CC(C)(C)c3nc(C)ccc32)CC1 [Example 28]", "Ki": "0.1 to 0.5 µM"}
{"compound": "CC1(C)CN(C(=O)[C@H]2CC[C@H](NCc3ccccc3)CC2)c2cccnc21 [Example 128, dihydrochloride]", "Ki": "< 0.1 µM"}
{"compound": "CN(Cc1ccccc1)[C@H]1CC[C@H](C(=O)N2CC(C)(C)c3ncccc32)CC1 [Example 138]", "Ki": "< 0.1 µM"}
{"compound": "CC1(C)CN(C(=O)NC2CCN(Cc3ccccc3)CC2)c2cc(F)cnc21 [Example 31]", "Ki": "< 0.1 µM"}
